biological target: human IDO1 (Homo sapiens, UniProt P14902); assay: IDO inhibition assay in HEK293 cells stably expressing human IDO1 (kynurenine production, Ehrlich reagent, absorbance 490 nm); conditions: 20 hours incubation with compound, 500 nM reference standard = 100% inhibition, read-out: IDO1 HEK Human IC50
Sequence (P14902 whole entry): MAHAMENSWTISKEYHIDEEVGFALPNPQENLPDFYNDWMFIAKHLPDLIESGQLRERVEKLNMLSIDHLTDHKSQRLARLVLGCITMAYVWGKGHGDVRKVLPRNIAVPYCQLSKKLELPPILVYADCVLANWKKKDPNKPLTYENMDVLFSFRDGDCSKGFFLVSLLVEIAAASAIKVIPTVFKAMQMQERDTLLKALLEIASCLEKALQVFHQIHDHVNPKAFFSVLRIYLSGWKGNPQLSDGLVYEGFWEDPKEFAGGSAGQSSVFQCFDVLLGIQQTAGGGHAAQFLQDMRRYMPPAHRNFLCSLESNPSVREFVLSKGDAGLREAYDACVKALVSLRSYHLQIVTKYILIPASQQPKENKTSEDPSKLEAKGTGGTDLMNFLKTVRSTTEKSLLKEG
Counter-ions that a name gives are not always drawn.
measurement.type: IC50 (nM)

Worked examples follow.
Can you look up the measured IC50 of CCCN(Cc1ccccc1)c1cc(NC(=O)Cc2cccnc2)cc(-c2ccccc2-c2nn[nH]n2)n1 [Example 226] for me?
3360

Note, next up: CCCN(Cc1ccccc1)c1cc(NC(=O)Cc2ccccc2C(F)(F)F)cc(-c2ccccc2-c2nn[nH]n2)n1 [Example 205]
80.2

Now the compound Cc1ccc(CC(=O)Nc2cc(-c3ccccc3-c3nnn[nH]3)nc(N(Cc3ccccc3)CC(C)C)c2)cc1 [Example 87, TFA]
40.7

Follow-up item: CCCN(Cc1ccc(F)cc1)c1cc(NC(=O)Cc2ccc(C)cc2)cc(-c2ccccc2-c2nnn[nH]2)n1 [Example 85, TFA]
89.8

Now give it for CC(C)CN(Cc1ccc(F)cc1)c1cc(Nc2ccc(F)cn2)cc(-c2ccccc2-c2nnn[nH]2)n1 [Example 48] too.
10.7

P = CCN(Cc1ccccc1)c1cc(NC(=O)Nc2ccc(OC(F)(F)F)cc2)cc(-c2ccccc2-c2nnn[nH]2)n1 [Example 277]
Q = CC(C)CN(Cc1ccccc1)c1cc(Nc2cccc(OC(F)(F)C(F)F)c2)cc(-c2ccccc2-c2nnn[nH]2)n1 [Example 189]
Lower value for measured IC50? Options: P , Q Use the label to indicate which entry you chose.
Q

* * *

Biological target: human IDO1 (Homo sapiens)
Assay: IDO inhibition assay in HEK293 cells stably expressing human IDO1 (kynurenine production, Ehrlich reagent, absorbance 490 nm)
Conditions: 20 hours incubation with compound, 500 nM reference standard = 100% inhibition, read-out: IDO1 HEK Human IC50
Experimental: HEK293 cells were transfected with a pCDNA-based mammalian expression vector harboring human IDO1 cDNA (NM 002164.2) by electroporation. They were cultured in medium (DMEM with 10% FBS) containing 1 mg/ml G418 for two weeks. […] The compound treatments were stopped by adding trichloroacetic acid (Sigma-Aldrich) to a final concentration at 0.2%. […] The absorbance at 490 nm was measured on Envision plate reader. […]
Where a name gives a salt, the structure may show the parent alone.
measurement.type: IC50 (µM)

Which value of IC50 has been reported for "CCN(Cc1ccccc1)c1cc(NC(=O)Nc2ccc(Cl)cc2Cl)cc(-c2ccccc2-c2nnn[nH]2)n1" in the records?
0.0137

Same question, Cc1ccc(CC(=O)Nc2cc(-c3ccccc3-c3nnn[nH]3)nc(N(CC(C)C)C3CCOCC3)c2)cc1 [Example 77, TFA] this time
2.09

Let us now turn to CCC(CC(=O)O)c1cc(Nc2ccc(Cl)cc2)cc(N(Cc2ccc(F)cc2)CC(C)C)n1 (single isomer, unassigned)
0.217

And CCC(CC(=O)O)c1cc(Nc2ccc3nc(C)sc3c2)cc(N(Cc2ccccc2)CC(C)C)n1 (single isomer, unassigned) ?
1.61

A = Cc1ccc(C(=O)Nc2cc(-c3ccccc3-c3nnn[nH]3)nc(N(Cc3ccccc3)CC(C)C)n2)c(F)c1
B = Cc1ccc(NC(=O)Nc2cc(-c3ccccc3-c3nnn[nH]3)nc(N3C[C@@H]4C[C@H]3CN4Cc3ccccc3)n2)cc1
Given the listed records, identify the one among A and B with higher IC50. Respond with the label that goes with your answer.
B

* * *

target: human IDO1 (Homo sapiens, UniProt P14902); experiment: IDO inhibition assay in HEK293 cells stably expressing human IDO1 (kynurenine production, Ehrlich reagent, absorbance 490 nm); conditions: 20 hours incubation with compound, 500 nM reference standard = 100% inhibition, read-out: IDO1 HEK Human IC50
pIC50: −log10 of the molar value. Structures can show the parent of a compound that is named as a salt.
measurement.type: pIC50

Please review the following examples before continuing.
// lookup pIC50 for "CCCN(Cc1ccccc1)c1cc(NC(=O)Cc2ccc(C)cc2)cc(-c2ccccc2C(=O)NS(=O)(=O)C2CC2)n1"
6.31

For "CC(C)CN(Cc1ccccc1)c1cc(Nc2ccc3ccccc3n2)cc(-c2ccccc2-c2nnn[nH]2)n1" then?
7.27

Same for "CC(C)CN(Cc1ccccc1)c1cc(Nc2ncccc2C#N)cc(-c2ccccc2-c2nnn[nH]2)n1"
6.13

Again, but for Cc1ccc(CC(=O)Nc2cc(-c3ccccc3-c3nnn[nH]3)nc(N(Cc3ccccc3)CC(C)C)c2)c(F)c1 [Example 79, TFA]
7.74

Follow-up item: "Cc1ccc(Nc2cc(-c3ccccc3-c3nnn[nH]3)nc(N(Cc3ccccc3)CC(C)C)c2)nn1"
6.27

1 = CCC(CC(=O)O)c1cc(Nc2ccc3nc(C)sc3c2)cc(N(Cc2ccccc2)C(C)C)n1 (stereo not shown)
2 = CCCN(CC1CC1)c1cc(NC(=O)Cc2ccc(F)cc2)cc(-c2ccccc2-c2nnn[nH]2)n1 [Example 73, TFA]
Two entries are listed, 1 and 2 . Which one carries the higher pIC50? Could you answer with the label of the item you picked?
2
(2: 6.48, 1: 6.01)

* * *

target: human IDO1 (Homo sapiens, UniProt P14902); construct: expressed in transfected cells; experiment: IDO inhibition assay in HEK293 cells stably expressing human IDO1 (kynurenine production, Ehrlich reagent, absorbance 490 nm); assay type: cell-based; conditions: 20 hours incubation with compound, 500 nM reference standard = 100% inhibition, read-out: IDO1 HEK Human IC50
Where a name gives a salt, the structure may show the parent alone.
measurement.type: IC50 (nM)

Answered cases to consult:
Form field: reported IC50 of Cc1ncccc1Nc1cc(-c2ccccc2-c2nnn[nH]2)nc(N(Cc2ccc(F)cc2)CC(C)C)c1 [Example 45, TFA]
239

Moving on to CC(C)CN(Cc1ccc(F)cc1)c1cc(Nc2ncc(F)cn2)cc(-c2ccccc2-c2nnn[nH]2)n1 [Example 44, TFA]
35.7

1 = CC(C)CN(Cc1ccccc1)c1cc(NC(=O)Cc2ccc(C(C)C)cc2)cc(-c2ccccc2-c2nnn[nH]2)n1
2 = Cc1ccc(CC(=O)Nc2cc(-c3ccccc3-c3nnn[nH]3)nc(N(Cc3ccccc3)CC3CC3)n2)cc1
Please let me know which one, 1 or 2 , has a lower measured IC50 value. Reply with the label of the item you choose.
2
(2: 32.4 nM, 1: 139 nM)

1 = CCCN(Cc1ccccc1)c1cc(NC(=O)Nc2ccc(OC(F)(F)F)cc2)cc(-c2ccccc2-c2nnn[nH]2)n1
2 = O=C(Nc1ccc(OC(F)(F)F)cc1)Nc1cc(-c2ccccc2-c2nnn[nH]2)nc(N(Cc2ccccc2)Cc2ccccc2)c1
Consider 1 and 2 . Which of these has its IC50 at a higher number? State the label of the item chosen.
2

* * *

target: human IDO1 (Homo sapiens); assay: IDO inhibition assay in HEK293 cells stably expressing human IDO1 (kynurenine production, Ehrlich reagent, absorbance 490 nm); conditions: 20 hours incubation with compound, 500 nM reference standard = 100% inhibition, read-out: IDO1 HEK Human IC50
Structures can show the parent of a compound that is named as a salt.
measurement.type: IC50 (nM)

Known IC50 results, listed for orientation:
GET /values?readout=IC50&item= "CCCN(Cc1ccccc1)c1cc(NC(=O)Cn2ccnc2)cc(-c2ccccc2-c2nn[nH]n2)n1"
3430

Thanks! And "CC(C)CN(Cc1ccccc1)c1cc(Nc2ccc3nncn3n2)cc(-c2ccccc2-c2nnn[nH]2)n1" ?
1120

And "CCCN(Cc1ccccc1)c1cc(NC(=O)Cc2cn(C)c3ccccc23)cc(-c2ccccc2-c2nn[nH]n2)n1" ?
249

a = CCN(Cc1ccccc1)c1cc(NC(=O)Cc2ccc(C)cc2)cc(-c2ccccc2-c2nnn[nH]2)n1
b = CCCN(Cc1ccccc1)c1cc(NC(=O)Nc2ccc(C)cc2)cc(-c2cc(C)ccc2-c2noc(=O)[nH]2)n1
c = Cc1ccc(CC(=O)Nc2cc(-c3ccccc3-c3nnn[nH]3)nc(N3CCCc4ccccc43)c2)cc1 [Example 68, TFA]
d = CCCN(Cc1ccccc1)c1cc(NC(=O)Nc2ccc3c(c2)OCO3)cc(-c2ccccc2-c2nnn[nH]2)n1
Ascending by IC50, please: list the compounds accordingly. I'd appreciate it if you listed the labels in the requested order.
b, a, d, c

* * *

target: human IDO1 (Homo sapiens, UniProt P14902); assay: IDO inhibition assay in HEK293 cells stably expressing human IDO1 (kynurenine production, Ehrlich reagent, absorbance 490 nm); settings: 20 hours incubation with compound, 500 nM reference standard = 100% inhibition, read-out: IDO1 HEK Human IC50
measurement.type: IC50 (nM)

State the recorded IC50 for this entry: CCC(CC(=O)O)c1cc(Nc2ccc(Cl)cc2)cc(N(Cc2ccc(F)cc2)C(C)C)n1 (racemic)
4.7

P = CC(C)CN(Cc1ccccc1)c1cc(Nc2ncc(C(N)=O)cc2F)cc(-c2ccccc2-c2nnn[nH]2)n1
Q = COc1ccc(Nc2cc(-c3ccccc3-c3nnn[nH]3)nc(N(Cc3ccccc3)CC(C)C)c2)cc1C(N)=O
R = CCCN(c1cc(NC(=O)Nc2ccc(C)cc2)cc(-c2cc(F)ccc2C(=O)O)n1)C1CCCCC1
S = CC(C)CN(Cc1ccccc1)c1cc(Nc2cccc(OC(F)(F)F)c2)cc(-c2ccccc2-c2nnn[nH]2)n1
T = CCCN(Cc1ccccc1)c1cc(Nc2nc3ccc(F)cc3s2)cc(-c2ccccc2-c2nnn[nH]2)n1
Put the compounds in ascending order of IC50. Answer by writing out the labels in the requested order.
S, T, P, R, Q
(S: 14.1 nM, T: 56.8 nM, P: 275 nM, R: 980 nM, Q: 2960 nM)
